For each record, write down the corresponding normalized growth.
measurementNotes: chemical genetic growth profiling, strain panel (AID 1159580);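 note: tested at 20 µM; growth read once vehicle control cultures reached saturation at 30 °C; 1 = growth at the plate median or of vehicle wells; lower values mean less growth of the strain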
experimentalConditions: S. cerevisiae deletion strains, growth OD, locus YNL175C, strain NOP13, hits give low values
Screen size: about 5,500 compounds; about 2,000 (36%) were called active. About 18% were inconclusive and are not listed. Some of the results follow.
Please reply with the value in numeric form only.

Task: Requested read-out: normalized growth. Entry: `Cc1ccc(S(=O)(=O)N[C@@H](CCCCN)C(=O)CCl)cc1`
Output: 1.01

Task: Requested read-out: normalized growth. Entry: `S=C(NC1CCCCC1)N1CCC(c2cnc[nH]2)CC1`
Output: 1

Task: Requested read-out: normalized growth. Entry: `COc1cc(/C=C(\C#N)C(=O)c2ccc(O)c(O)c2)cc(I)c1O`
Output: 0.984

Task: Requested read-out: normalized growth. Entry: `O=S(=O)(c1cccc2c(I)cccc12)N1CCCNCC1`
Output: 0.995
